molecular target: human CB1 receptor (Homo sapiens); construct: expressed in transfected cells; host or cells: CHO cells (membrane fraction); assay: [3H]-CP55,940 binding inhibition assay, CHO cell membrane fraction expressing human CB1 receptor
parameter-measured: pIC50
Would you please state pIC50, meaning minus log10 of the concentration in mol/L, as a bare number?

>  <molecule>
Cc1c(C)c2c(c(C)c1NC(=O)NC(C)(C)C)C(c1ccc(C(C)C)cc1)CO2 (centres unmarked)

>  <system-name>
human CB1 receptor (Homo sapiens)

>  <parameter-measured>
pIC50

>  <recorded-measurement>
7.70

$$$$
>  <molecule>
Cc1c(NC(=O)CC(C)(C)C)c(C)c(C(C)(C)O)c2c1C(c1ccc(C(C)C)cc1)CO2 (centres unmarked)

>  <system-name>
human CB1 receptor (Homo sapiens)

>  <parameter-measured>
pIC50

>  <recorded-measurement>
7.85

$$$$
>  <molecule>
Cc1cc(C)c2c(c1)SCC2c1ccc(C(C)C)cc1 (centres unmarked) [Reference Example 212]

>  <system-name>
human CB1 receptor (Homo sapiens)

>  <parameter-measured>
pIC50

>  <recorded-measurement>
7.16

$$$$
>  <molecule>
Cc1c(C)c2c(c(C)c1NC(=O)CC(C)(C)C)C(c1ccc(C(C)C)cc1)CO2 (centres unmarked)

>  <system-name>
human CB1 receptor (Homo sapiens)

>  <parameter-measured>
pIC50

>  <recorded-measurement>
7.70

$$$$
>  <molecule>
Cc1ccc(C)c(C(CO)c2ccc(C(C)C)cc2)c1O (centres unmarked) [Reference Example 233]

>  <system-name>
human CB1 receptor (Homo sapiens)

>  <parameter-measured>
pIC50

>  <recorded-measurement>
7.42

$$$$

Q. Look at this molecule and give its reported pIC50. Cc1c(C)c(C(CO)c2ccc(C(C)C)cc2)c(O)c(C)c1Br (centres unmarked) [Reference Example 234]
A. 7.40

Q. Bench note: what pIC50 did CCC(=O)Nc1c(C)c(C)c2c(c1C)C(c1ccc(C(C)C)cc1)CO2 (centres unmarked) show?
A. 7.10

Q. Item Cc1c(NC(=O)CC(C)(C)C)c(C)c2c(c1C(C)O)OCC2c1ccc(C(C)C)cc1 (centres unmarked) [Example 22] has what recorded pIC50?
A. 7.96

Q. Param item = Cc1ccc(C)c2c1OC(=O)C2c1ccc(C(C)C)cc1 (centres unmarked) [Reference Example 230] ; retrieve measured pIC50.
A. 7.26

###

target: human CB2 receptor (Homo sapiens); construct: expressed in transfected cells; host or cells: CHO cells (membrane fraction); assay: [3H]-CP55,940 binding inhibition assay, CHO cell membrane fraction expressing human CB2 receptor; conditions: 500 pM [3H]-CP55940, CHO cell membrane fraction expressing human CB2 receptor; read-out: CB2 IC50 value
Sequence (P34972 whole entry): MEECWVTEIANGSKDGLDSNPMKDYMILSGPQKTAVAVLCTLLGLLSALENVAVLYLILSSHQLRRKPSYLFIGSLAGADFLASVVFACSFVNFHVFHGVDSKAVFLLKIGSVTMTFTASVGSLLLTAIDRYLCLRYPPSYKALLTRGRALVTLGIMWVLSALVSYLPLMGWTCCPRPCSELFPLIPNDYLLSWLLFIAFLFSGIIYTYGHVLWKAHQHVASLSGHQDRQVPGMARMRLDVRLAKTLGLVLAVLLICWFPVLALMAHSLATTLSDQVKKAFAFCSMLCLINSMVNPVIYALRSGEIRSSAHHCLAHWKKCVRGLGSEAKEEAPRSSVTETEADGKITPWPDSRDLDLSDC
parameter-measured: IC50 (µM)
Only the number, expressed in µM, is required.

Q. Lab note: need IC50 for CCOC(=O)C(C)(C)Oc1cc(C)cc(C)c1Cc1ccc(C(C)C)cc1 [Reference Example 153] on human CB2 receptor (Homo sapiens), anyone have it?
A. 0.56

###

target: human CB1 receptor (Homo sapiens, UniProt P21554); construct: expressed in transfected cells; host or cells: CHO cells (membrane fraction); assay: [3H]-CP55,940 binding inhibition assay, CHO cell membrane fraction expressing human CB1 receptor; conditions: 500 pM [3H]-CP55940, CHO cell membrane fraction expressing human CB1 receptor, room temperature, 60 minutes; read-out: CB1 IC50 value
Sequence (P21554 whole entry): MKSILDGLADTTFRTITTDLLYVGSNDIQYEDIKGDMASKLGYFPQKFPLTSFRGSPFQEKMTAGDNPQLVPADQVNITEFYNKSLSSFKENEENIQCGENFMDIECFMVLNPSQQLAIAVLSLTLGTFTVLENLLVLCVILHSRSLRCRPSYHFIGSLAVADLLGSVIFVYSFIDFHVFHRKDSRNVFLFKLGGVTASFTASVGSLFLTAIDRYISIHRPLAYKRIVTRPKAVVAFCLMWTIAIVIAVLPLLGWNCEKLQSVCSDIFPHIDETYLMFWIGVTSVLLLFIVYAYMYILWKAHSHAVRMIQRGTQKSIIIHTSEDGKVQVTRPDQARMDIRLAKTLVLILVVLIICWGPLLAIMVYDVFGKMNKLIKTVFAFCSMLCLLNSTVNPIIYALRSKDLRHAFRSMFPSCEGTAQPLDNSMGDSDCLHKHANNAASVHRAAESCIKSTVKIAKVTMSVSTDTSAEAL
parameter-measured: IC50 (nM)
Only the number, expressed in nM, is required.

Q. Reported IC50 for CCOC(=O)C(C)(C)Oc1cc(C)cc(C)c1Cc1ccc(C(C)C)cc1 [Reference Example 153] : what is it?
A. 110

Values from patent US7465815B2
